# ASSAY COMMENT: Toxicity liver stage against HepG2, at 10uM
# Assay type: cell-based
# Design: test concentration 10 uM, cell line HepG2-A16-CD81EGFP
# SETUP CONDITIONS: human, HepG2-A16-CD81EGFP cells; read-out: INHIBITION
Reported cytotoxicity at 10 µM values for a set of molecules
Quick reminder: number only, in %, skip the unit.

# MOLECULE, cytotoxicity at 10 µM (%)
records = [
    ("Cc1c(C(=O)NCCC(=O)N2CCCC2)oc2c(F)cccc12", 5.87),
    ("CNc1cncc(C2CCN(C(=O)c3cnco3)CC2)n1", -5.68),
    ("c1ncn(CC2CCCN(Cc3nc(-c4ccoc4)no3)C2)n1 (stereo not given)", -1.43),
]

Prompt: I would be grateful if you could share the reported cytotoxicity at 10 µM for COc1ccc(CCNC(=O)C(C)Nc2cc(C)ccc2C)cc1 (stereo not given) .
Completion: -5.71

Prompt: Now the molecule O=C1CSC(c2cccnc2)c2c(n(C3CCOCC3)[nH]c2=O)N1 (stereo not given)
Completion: -7.95

Prompt: Cool, now Cc1nc(NC(=O)OC(C)(C)C)sc1C#N
Completion: -10

Prompt: Then Cn1c(C(F)(F)F)nn(CCNC(=O)NCc2ccccc2)c1=O ?
Completion: -27.3

Prompt: Here is the next molecule: CCOCC(O)CN1CCN(C(=O)c2cccc3[nH]ncc23)CC1 (stereo not given)
Completion: -12.8

Prompt: Further, for CNC(=O)COC1COC2(CCN(Cc3cccnc3OC)CC2)C1 (stereo not given) ?
Completion: 7.61

Prompt: Lookup Cc1ncccc1NC(=O)[C@H]1C[C@@H]2CCN(Cc3ccsc3)C[C@H]2O1
Completion: -79.1

Prompt: How about this molecule: NC(=O)CCCNC(=O)Cc1cccc(I)c1
Completion: -3.71

Prompt: What do you get for CCOCCCNc1cc(C)nn2cnnc12 ?
Completion: 2.21

Prompt: Entry to check: COc1cccc(OCCNC(=O)CN2CCN(C)CC2C)c1 (stereo not given)
Completion: -2.5

Prompt: // next record COC(=O)COn1c(OC)nc2ccccc2c1=O
Completion: -4.73

Prompt: Same for Cc1ncc2c(n1)C1(CCN(C(=O)C(C)C)CC1)OCC2
Completion: 5.49

Prompt: Now the same for Cc1cc(CN2CCc3nc(N4CCOCC4)nc(O)c3CC2)c(C)s1
Completion: 6.3

Prompt: Now the molecule COc1cc(CNC(C)c2cccc(Cl)c2)cc(OC)c1OC (stereo not given)
Completion: 5.02

* * *

# ASSAY COMMENT: Toxicity liver stage against HepG2, at 10uM
# Assay type: cell-based
# Set-up: test concentration 10 uM, cell line HepG2-A16-CD81EGFP
# SETUP CONDITIONS: human, HepG2-A16-CD81EGFP cells; read-out: INHIBITION
RESULT TYPE: cytotoxicity at 10 µM (%)
Express it in %; write the number only.

Recorded cytotoxicity at 10 µM, per entry:
# MOLECULE, cytotoxicity at 10 µM (%)
rows = [
    ("CC(C)CCc1noc(C[S+]([O-])CC(=O)NCc2ccccc2)n1 (stereo unspecified)", 5.28),
    ("O=C(c1ccc(F)cc1)N1CCN2C[C@H](OCc3ccccn3)C[C@H]2C1", 2.8),
    ("Cc1[nH]c2c(F)cccc2c1CC(=O)NC1CCCCNC1=O (stereo unspecified)", 19.1),
    ("Cc1nc(CN(C)C2CCN(Cc3nc(C4CC4)no3)C2)no1 (stereo unspecified)", -5.29),
    ("CC(C(N)=O)N1CCN(c2ncc(Cl)cn2)CC1 (stereo unspecified)", -1.26),
]

Prompt: Can you share its cytotoxicity at 10 µM? I mean this molecule: CCn1c(CC2CCN(S(=O)(=O)c3cccc(C)c3)CC2)nn(C)c1=O
Completion: 2.01

Prompt: Also check c1ccc(-c2noc(C3CCN(CCCn4cncn4)CC3)n2)cc1
Completion: -14.3

Prompt: Entry to check: Cc1nnc(N2CCO[C@H]3[C@@H](OCc4ccccn4)CC[C@@H]32)s1
Completion: 12.2

Prompt: Record: Cn1ccc2c(C(=O)NC3CN4CCC3CC4)cccc21 (stereo unspecified)
Completion: -46.8

Prompt: Now the molecule CCn1cc(NC(=O)NCC(c2cccc(OC)c2)N(C)C)cn1 (stereo unspecified)
Completion: -7.25

Prompt: // same read-out, input: O=C(NCc1ccco1)[C@@]12CCO[C@@H]1CCN(CC1CCOCC1)C2
Completion: 6.06

* * *

# ASSAY COMMENT: Toxicity liver stage against HepG2, at 10uM
# Format: cell-based
# Set-up: test concentration 10 uM, cell line HepG2-A16-CD81EGFP
# SETUP CONDITIONS: human, HepG2-A16-CD81EGFP cells; read-out: INHIBITION
Below, each entry is listed with its recorded cytotoxicity at 10 µM.
Report the figure along with its unit, number first.

# MOLECULE, RESULT TYPE, VALUE
measured = [
    ("Cc1cccc(COC[C@@]23CCC[C@@H]2CN(C(=O)Cc2ccco2)C3)n1", "cytotoxicity at 10 µM", "-109%"),
    ("Cc1noc([C@@H]2C[C@H]3CN(Cc4ccc5c(c4)OCO5)C[C@H]3O2)n1", "cytotoxicity at 10 µM", "-113%"),
    ("CN1CC(C(=O)NCCc2ccc(F)c(Br)c2)CC1=O (centres undefined)", "cytotoxicity at 10 µM", "3.57%"),
    ("CN1CCN(Cc2cnc3n2CCN(C(=O)c2cnccn2)C3)CC1", "cytotoxicity at 10 µM", "-65.1%"),
    ("O=C(CCn1cncn1)N1C[C@@H]2CC[C@H]1CN(Cc1ccncc1)C2", "cytotoxicity at 10 µM", "9.53%"),
]

Prompt: What does the data say about its cytotoxicity at 10 µM? Entry: CC(C)NC(=O)N1CCCn2cnc(CO)c2C1
Completion: -151%

Prompt: COc1ccc(C(C(=O)O)N(C)CCN2CCOCC2)c(C)c1 (centres undefined) , same question.
Completion: 2.66%

Prompt: Lookup Cc1ccc(-c2cc(C(=O)NCCN3CCCS3(=O)=O)[nH]n2)o1
Completion: -7.98%

Prompt: Moving on to the next molecule: CN1CCN(c2ccccc2CNC(=O)Cc2cccc(F)c2)CC1
Completion: -6.29%

Prompt: Next: Cc1cc(C(=O)N2CCN(Cc3ccsc3)CC2)c(C)n1C1CC1
Completion: -1.94%

Prompt: OC1CCN(c2cnnc3ccccc23)CC1 , same question.
Completion: -0.561%

Prompt: Continue with CS(=O)(=O)N[C@@H]1CN(Cc2ccccc2)C[C@H]1O
Completion: -2.92%

Prompt: Also, Cc1cc(C(=O)NCC2Cn3nnc(C)c3CO2)no1 (centres undefined) please.
Completion: -4.07%

* * *

Examples of compounds with documented cytotoxicity at 10 µM follow.
# ASSAY COMMENT: Toxicity liver stage against HepG2, at 10uM
# Format: cell-based
# Parameters: test concentration 10 uM, cell line HepG2-A16-CD81EGFP
# SETUP CONDITIONS: human, HepG2-A16-CD81EGFP cells; read-out: INHIBITION
Could you write the number and then its unit?

# COMPOUND, VALUE
data = [
    ("CCn1ccnc1CN1CCN(C(C)C(=O)NCc2ccco2)CC1 (configuration not stated)", "7.79%"),
    ("O=C(C[C@@H]1COC[C@H]2CN(Cc3ccccc3)C[C@@H]12)N1CCCC1", "2.03%"),
    ("NS(=O)(=O)c1cccnc1Nc1c(Cl)cccc1Cl", "-11.8%"),
    ("CC(C)c1ncc(CN2CCOC(C(=O)Nc3ccccc3)C2)cn1 (configuration not stated)", "-25.3%"),
]

Prompt: Quick check: cytotoxicity at 10 µM of Cc1cnn(CC2CCCN2CCCS(=O)(=O)N(C)C)c1 (configuration not stated) ?
Completion: -7.45%

Prompt: And O=C1CN(c2ccc(CNC(=O)c3cccnc3O)cc2F)CCN1 ?
Completion: 5.04%

Prompt: For COCCCNc1cc(C(=O)N2CCOCC2)ccc1C then?
Completion: 7.1%

* * *

# ASSAY COMMENT: Toxicity liver stage against HepG2, at 10uM
# Type: cell-based
# Parameters: test concentration 10 uM, cell line HepG2-A16-CD81EGFP
# SETUP CONDITIONS: human, HepG2-A16-CD81EGFP cells; read-out: INHIBITION
Consider the following molecules and their measured cytotoxicity at 10 µM readings.
Numeric answer only, unit % assumed.

Consider the worked cases shown below.
# MOLECULE, ENDPOINT UNIT, cytotoxicity at 10 µM
rows = [
    ("CCCSCC(=O)N1CCCC(c2nccn2Cc2ccncc2)C1 (centres undefined)", "%", 4.69),
    ("c1ccc(-n2ncc(CNCC3CCCN3c3cccnn3)n2)cc1 (centres undefined)", "%", -6.71),
    ("O=C(NCc1ccnc(OCC2CC2)c1)C1Cc2ccccc2O1 (centres undefined)", "%", -0.483),
    ("O=C(c1ccc[nH]1)N1CCN(Cc2ccncc2)c2ncccc2C1", "%", 10.1),
    ("CC1CCN(CC2CCN(C(=O)c3c[nH]c4ncccc34)CC2)CC1", "%", 10),
]

Prompt: cytotoxicity at 10 µM for CN1CC2(CCN(C(=O)c3cn4cccnc4n3)CC2)CC1=O ?
Completion: -7.72

Prompt: Lookup Cc1nc(C)n(CC2CCCN(Cc3cccc(C(N)=O)c3)C2)n1 (centres undefined)
Completion: -29

Prompt: Let us now turn to CCOC(=O)N(C)CC(=O)NCCc1coc(-c2ccc(C)cc2)n1
Completion: -13.9

Prompt: Param item: CCS(=O)(=O)CCCOc1nc(-c2ccccc2Cl)no1
Completion: -6.14

Prompt: Next: CC(=O)N1CCCC(c2ccc(Nc3nc(C)cc(C)n3)cn2)C1 (centres undefined)
Completion: -4.09

Prompt: Note, next up: CC(C)CN1CCC(NC(=O)c2ccc(F)cc2F)CC1
Completion: -3.1

Prompt: One more molecule: Cc1cc(CN2CCN(C(=O)CCc3cccc(F)c3F)CC2)on1
Completion: -6.16

Prompt: Another molecule: CC(=O)c1c(F)cccc1N1CCC(CS(N)(=O)=O)CC1
Completion: -7.79

Prompt: Quick one: COc1cccc(N2CCN(C(=O)[C@H](O)C3CCCCC3)CC2=O)c1
Completion: -14.1

Prompt: Do the same for Cn1c(C(F)(F)F)nn(CCNC(=O)Nc2ccccc2Cl)c1=O please
Completion: 13.4

Prompt: Record: O=C(O)c1ccnc(-c2ccnc(COc3ccccc3Cl)n2)c1
Completion: -9.86
